The measured values listed here are drawn from patent US9512128B2.

- method: log P by HPLC on reversed-phase columns (C 18), EEC directive 79/831 Annex V.A8
- Type: physicochemical
- reported.conditions: method [b]
Binning of logP[b] into classes: zone 1: < 2; zone 2: ≥ 2 and < 3; zone 3: ≥ 3

{"compound": "Cc1ccc(-n2cnc3c(c(C)nn3C)c2=O)cc1[S+]([O-])CC(F)(F)F (racemic)", "label": "zone 1"}
{"compound": "Cc1cc(C)c([S+]([O-])CC(F)(F)F)cc1-n1cnc2scnc2c1=O (centres unmarked)", "label": "zone 1"}
{"compound": "CCn1cnc2c(=O)n(-c3cc(SCC(F)(F)F)c(C)cc3F)cnc21", "label": "zone 2"}
{"compound": "Cn1ncc2c(=O)n(-c3ccc(C(F)(F)F)c(SCC(F)(F)F)c3)cnc21", "label": "zone 2"}
{"compound": "Cc1cc(C)c([S+]([O-])CC(F)(F)F)cc1-n1c(C)nc2c(ncn2C)c1=O (racemic)", "label": "zone 1"}
{"compound": "Cc1nc2c(=O)n(-c3cc(SCC(F)(F)F)c(C)cc3F)cnc2s1", "label": "zone 2"}
{"compound": "Cc1cc(C)c(-n2cnc3sccc3c2=O)cc1SCC(F)(F)F", "label": "zone 3"}
{"compound": "Cn1ncc2c(=O)n(-c3ccc(C#N)c(SCC(F)(F)F)c3)cnc21", "label": "zone 2"}
{"compound": "Cc1nc2c(cnn2C)c(=O)n1-c1cc(SCC(F)(F)F)c(Cl)cc1Cl", "label": "zone 3"}
{"compound": "N#Cc1ccc(-n2cnc3sccc3c2=O)cc1[S+]([O-])CC(F)(F)F (centres unmarked) [Compound 95]", "label": "zone 1"}
{"compound": "Cc1cc(F)c(-n2cnc3c(Cl)csc3c2=O)cc1[S+]([O-])CC(F)(F)F (centres unmarked)", "label": "zone 2"}
{"compound": "Cn1ncc2c(=O)n(-c3ccc(Cl)c([S+]([O-])CC(F)(F)F)c3)cnc21 (racemic)", "label": "zone 1"}
{"compound": "Cc1cc(F)c(-n2cnc3scnc3c2=O)cc1[S+]([O-])CC(F)(F)F (centres unmarked)", "label": "zone 1"}
{"compound": "Cc1cc(F)c(-n2cnc3c(Cl)c(Cl)sc3c2=O)cc1SCC(F)(F)F", "label": "zone 3"}
{"compound": "Cc1nc2c(=O)n(-c3cc([S+]([O-])CC(F)(F)F)c(C)cc3C)cnc2s1 (centres unmarked)", "label": "zone 1"}
{"compound": "COc1ccc(-n2cnc3sccc3c2=O)cc1[S+]([O-])CC(F)(F)F (centres unmarked)", "label": "zone 1"}
{"compound": "O=c1c2ncsc2ncn1-c1cc(SCC(F)(F)F)c(Cl)cc1Cl", "label": "zone 2"}
{"compound": "Cc1c2c(=O)n(-c3ccc(Cl)c([S+]([O-])CC(F)(F)F)c3)cnc2nn1C (racemic)", "label": "zone 1"}
{"compound": "Cc1cc(C)c([S+]([O-])CC(F)(F)F)cc1-n1cnc2sccc2c1=O (centres unmarked)", "label": "zone 2"}
{"compound": "Cc1ccc(-n2cnc3ccsc3c2=O)cc1SCC(F)(F)F", "label": "zone 2"}
{"compound": "O=c1c2sccc2ncn1-c1ccc(Cl)c(SCC(F)(F)F)c1", "label": "zone 2"}
{"compound": "Cc1ccc(-n2cnc3c(cnn3C)c2=O)cc1SCC(F)(F)F", "label": "zone 2"}
{"compound": "Cc1cc(F)c(-n2c(C)nc3c(cnn3CC(F)(F)F)c2=O)cc1SCC(F)(F)F", "label": "zone 3"}
{"compound": "Cc1nc2c(=O)n(-c3cc(SCC(F)(F)F)c(C)cc3C)cnc2s1", "label": "zone 2"}
{"compound": "Cc1ccc(-n2cnc3c(cnn3C)c2=O)cc1[S+]([O-])CC(F)(F)F (racemic)", "label": "zone 1"}
{"compound": "Cc1ccc(-n2cnc3c(c(C)nn3C)c2=O)cc1SCC(F)(F)F", "label": "zone 2"}
{"compound": "Cc1cc(F)c(-n2cnc3c(ncn3C)c2=O)cc1SCC(F)(F)F", "label": "zone 2"}
{"compound": "Cc1c2c(=O)n(-c3ccc(C(F)(F)F)c(SCC(F)(F)F)c3)cnc2nn1C", "label": "zone 2"}
{"compound": "Cc1c2c(=O)n(-c3ccc(Cl)c(SCC(F)(F)F)c3)cnc2nn1C", "label": "zone 2"}
{"compound": "O=c1c2ccsc2ncn1-c1cc(SCC(F)(F)F)c(Cl)cc1Cl", "label": "zone 3"}
{"compound": "Cc1cc(F)c(-n2cnc3ccsc3c2=O)cc1[S+]([O-])CC(F)(F)F (centres unmarked) [Compound 113]", "label": "zone 2"}
{"compound": "COc1ccc(-n2cnc3sccc3c2=O)cc1SCC(F)(F)F", "label": "zone 2"}

###

- method: log P by HPLC on reversed-phase columns (C 18), EEC directive 79/831 Annex V.A8
- Assay type: physicochemical
- reported.conditions: reversed-phase C18 HPLC column, pH 2.7, method [a]; read-out: logP[a]
Note to self: chromatographic logP under 3 means yes, ties and anything higher get no.

{"compound": "Cc1cc(F)c(-n2cnc3c(cnn3C)c2=O)cc1[S+]([O-])CC(F)(F)F (stereo not shown)", "label": "yes"}
{"compound": "Cc1cc(F)c(-n2c(C)nc3c(cnn3C)c2=O)cc1[S+]([O-])CC(F)(F)F (stereo not shown)", "label": "yes"}
{"compound": "Cc1cc(F)c(-n2cnc3c(cnn3C)c2=O)cc1SCC(F)(F)F", "label": "yes"}
{"compound": "Cc1cc(F)c(-n2c(C(F)(F)F)nc3c(cnn3C)c2=O)cc1SCC(F)(F)F", "label": "no"}
{"compound": "Cc1cc(F)c(-n2nnc3c(cnn3C)c2=O)cc1SCC(F)(F)F", "label": "no"}
{"compound": "Cc1ccc(-n2cnc3sccc3c2=O)cc1[S+]([O-])CC(F)(F)F (stereo not shown)", "label": "yes"}
{"compound": "Cc1cc(F)c(-n2nnc3c(cnn3C)c2=O)cc1[S+]([O-])CC(F)(F)F (stereo not shown)", "label": "yes"}
{"compound": "Cc1cc(F)c(-n2c(C)nc3c(cnn3C)c2=O)cc1SCC(F)(F)F", "label": "yes"}
{"compound": "Cc1cc(F)c(-n2c(C(F)(F)F)nc3c(cnn3C)c2=O)cc1[S+]([O-])CC(F)(F)F (stereo not shown)", "label": "yes"}

###

logP[b] by entry:
- method: log P by HPLC on reversed-phase columns (C 18), EEC directive 79/831 Annex V.A8
- Assay type: physicochemical
- reported.conditions: method [b]
readout.label: logP[b]

{"compound": "O=c1c2sccc2ncn1-c1ccc(C(F)(F)F)c(SCC(F)(F)F)c1 [Compound 104]", "value.observed": 3.07}
{"compound": "Cc1cc(C)c([S+]([O-])CC(F)(F)F)cc1-n1cnc2c(ncn2C)c1=O (racemic) [Compound 58]", "value.observed": 1.40}
{"compound": "Cn1ncc2c(=O)n(-c3ccc(Cl)c(SCC(F)(F)F)c3)cnc21 [Compound 23]", "value.observed": 2.53}
{"compound": "Cc1cc(F)c(-n2c(C(F)(F)F)nc3c(cnn3CC(F)(F)F)c2=O)cc1SCC(F)(F)F [Compound 19]", "value.observed": 4.10}
{"compound": "Cc1nn(C)c2ncn(-c3ccc(Cl)c([S+]([O-])CC(F)(F)F)c3)c(=O)c12 (centres unmarked) [Compound 37]", "value.observed": 1.98}
{"compound": "Cc1c2c(=O)n(-c3ccc(C(F)(F)F)c([S+]([O-])CC(F)(F)F)c3)cnc2nn1C (centres unmarked) [Compound 46]", "value.observed": 2.07}
{"compound": "Cc1c2c(=O)n(-c3ccc(C#N)c(SCC(F)(F)F)c3)cnc2nn1C [Compound 50]", "value.observed": 1.92}
{"compound": "CC(C)(C)c1snc2ncn(-c3ccc(Cl)c(SCC(F)(F)F)c3)c(=O)c12 [Compound 117]", "value.observed": 3.97}

###

- method: log P by HPLC on reversed-phase columns (C 18), EEC directive 79/831 Annex V.A8
- Assay type: physicochemical
- reported.conditions: reversed-phase C18 HPLC column, pH 7.8, neutral range, pH 7.8, 0.001 molar aqueous ammonium bicarbonate / acetonitrile; read-out: log P[b]

{"molecule": "Cc1cc(C)c(SCC(F)(F)F)cc1Br", "modifier": "=", "chromatographic logP": 4.77}
{"molecule": "Cc1ccc(Br)cc1SSc1cc(Br)ccc1C", "modifier": ">", "chromatographic logP": 7.36}
{"molecule": "Cc1cc(F)c(I)cc1SCC(F)(F)F", "modifier": "=", "chromatographic logP": 4.44}
{"molecule": "Cc1cc(F)c(-n2c(C(F)(F)F)nc3c(cnn3C)c2=O)cc1[S+]([O-])CC(F)(F)F (centres unmarked)", "modifier": "=", "chromatographic logP": 2.63}
{"molecule": "Cc1cc(F)c(-n2c(C(F)(F)F)nc3c(cnn3C)c2=O)cc1SCC(F)(F)F", "modifier": "=", "chromatographic logP": 3.94}
{"molecule": "Nc1cc(SSc2ccc(Cl)c(N)c2)ccc1Cl", "modifier": "=", "chromatographic logP": 3.83}
{"molecule": "Cc1cc(F)c(-n2nnc3c(cnn3C)c2=O)cc1[S+]([O-])CC(F)(F)F (centres unmarked)", "modifier": "=", "chromatographic logP": 2.1}
{"molecule": "Cc1cc(F)c(-n2nnc3c(cnn3C)c2=O)cc1SCC(F)(F)F", "modifier": "=", "chromatographic logP": 3.13}
